Target: 11-beta-hydroxysteroid dehydrogenase 1 (Homo sapiens, UniProt P28845)
Sequence (P28845 whole entry): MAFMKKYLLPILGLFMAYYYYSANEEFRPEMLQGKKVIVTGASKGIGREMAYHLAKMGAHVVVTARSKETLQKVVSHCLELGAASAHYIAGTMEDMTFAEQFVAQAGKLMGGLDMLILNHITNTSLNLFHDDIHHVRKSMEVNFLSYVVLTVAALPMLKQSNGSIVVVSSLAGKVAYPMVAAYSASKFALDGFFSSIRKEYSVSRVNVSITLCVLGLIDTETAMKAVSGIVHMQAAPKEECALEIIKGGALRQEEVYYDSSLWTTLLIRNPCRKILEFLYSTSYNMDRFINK
Assay: Inhibition of recombinant 11betaHSD1 expressed in CHO cells assessed as [3H]-cortisone to [3H]-cortisol by microscintillation plate reader in presence of plasma
Type: cell-based
Readings of pIC50 for the listed compounds
Please treat pIC50 as minus the base-10 logarithm of the molar concentration.

N#Cc1cccnc1N[C@@H]1CCN(C(=O)O[C@H]2C3CC4CC2C[C@](C(N)=O)(C4)C3)C1 = 8.62

Value lookup for pIC50; key = "N#Cc1ccc(N[C@@H]2CCN(C(=O)O[C@H]3C4CC5CC3C[C@](C(N)=O)(C5)C4)C2)nc1"
8.49

====

Biological target: UniProt P28845
Assay: Inhibition of 11betaHSD1 in human platelet assessed as [3H]-cortisone to [3H]-cortisol by microscintillation plate reader
measuredAttribute: pIC50
Please treat pIC50 as minus the base-10 logarithm of the molar concentration.

N#Cc1ccc(N[C@H]2CCN(C(=O)O[C@H]3C4CC5CC3C[C@](C(N)=O)(C5)C4)C2)nc1 = 8.28
N#Cc1cccnc1N[C@H]1CCN(C(=O)O[C@H]2C3CC4CC2C[C@](C(N)=O)(C4)C3)C1 = 8.12
CC(C)(C)OC(=O)N[C@@H]1CCN(C(=O)O[C@H]2C3CC4CC2C[C@](C(N)=O)(C4)C3)C1 = 8.12

Given the entry "N#Cc1cccnc1N[C@@H]1CCN(C(=O)O[C@H]2C3CC4CC2C[C@](C(N)=O)(C4)C3)C1" , what pIC50 was observed with UniProt P28845?
9.40

Given the entry "CC(C)(C)OC(=O)N[C@H]1CCN(C(=O)O[C@H]2C3CC4CC2C[C@](C(N)=O)(C4)C3)C1" , what pIC50 was observed with UniProt P28845?
7.75

Given the entry "N#Cc1ccc(N[C@@H]2CCN(C(=O)O[C@H]3C4CC5CC3C[C@](C(N)=O)(C5)C4)C2)nc1" , what pIC50 was observed with UniProt P28845?
8.57

====

Readings of clearance for the listed compounds
Experiment: Clearance in rat at 1 umol/kg, iv and 5 umol/kg, po
Conditions: in vivo
Dear colleague, please return just the value in mL/min/kg, with no unit written.

N#Cc1cccnc1N[C@@H]1CCN(C(=O)O[C@H]2C3CC4CC2C[C@](C(N)=O)(C4)C3)C1 = 42

Now consider a different compound.
Value lookup for clearance; key = "N#Cc1ccc(N[C@@H]2CCN(C(=O)O[C@H]3C4CC5CC3C[C@](C(N)=O)(C5)C4)C2)nc1"
80

====

pIC50: −log10 of the molar value.
The listing below reports pIC50 for compounds tested on Cytochrome P450 2D6 (Homo sapiens, UniProt P10635).
Sequence (P10635 whole entry): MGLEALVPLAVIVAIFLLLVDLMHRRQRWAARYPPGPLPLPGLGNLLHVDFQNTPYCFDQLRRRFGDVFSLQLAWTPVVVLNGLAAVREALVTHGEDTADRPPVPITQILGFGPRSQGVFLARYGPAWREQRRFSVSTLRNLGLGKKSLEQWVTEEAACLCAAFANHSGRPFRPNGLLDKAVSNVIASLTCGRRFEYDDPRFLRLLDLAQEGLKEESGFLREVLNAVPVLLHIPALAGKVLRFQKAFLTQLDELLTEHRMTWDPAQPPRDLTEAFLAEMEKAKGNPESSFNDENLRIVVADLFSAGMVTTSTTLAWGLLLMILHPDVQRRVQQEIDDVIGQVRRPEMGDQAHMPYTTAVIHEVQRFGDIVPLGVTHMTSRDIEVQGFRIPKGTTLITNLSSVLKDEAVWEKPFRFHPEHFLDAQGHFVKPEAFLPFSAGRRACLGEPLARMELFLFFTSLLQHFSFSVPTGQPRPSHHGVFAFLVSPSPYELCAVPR

OC1C2CC3CC(C2)CC1C3 (stereo not drawn) = < 4.52

Given the entry CC(C)(C)OC(=O)N[C@@H]1CCN(C(=O)OC2C3CC4CC(C3)CC2C4)C1 (stereo partly drawn) , what pIC50 was observed with Cytochrome P450 2D6 (Homo sapiens, UniProt P10635)?
< 4.52

Given the entry "N#Cc1cccnc1N[C@H]1CCN(C(=O)O[C@H]2C3CC4CC2C[C@](C(N)=O)(C4)C3)C1" , what pIC50 was observed with Cytochrome P450 2D6 (Homo sapiens, UniProt P10635)?
< 4.52

====

The listing below reports IC50 for molecules tested on Cytochrome P450 3A4 (Homo sapiens).
Sequence (P08684 whole entry): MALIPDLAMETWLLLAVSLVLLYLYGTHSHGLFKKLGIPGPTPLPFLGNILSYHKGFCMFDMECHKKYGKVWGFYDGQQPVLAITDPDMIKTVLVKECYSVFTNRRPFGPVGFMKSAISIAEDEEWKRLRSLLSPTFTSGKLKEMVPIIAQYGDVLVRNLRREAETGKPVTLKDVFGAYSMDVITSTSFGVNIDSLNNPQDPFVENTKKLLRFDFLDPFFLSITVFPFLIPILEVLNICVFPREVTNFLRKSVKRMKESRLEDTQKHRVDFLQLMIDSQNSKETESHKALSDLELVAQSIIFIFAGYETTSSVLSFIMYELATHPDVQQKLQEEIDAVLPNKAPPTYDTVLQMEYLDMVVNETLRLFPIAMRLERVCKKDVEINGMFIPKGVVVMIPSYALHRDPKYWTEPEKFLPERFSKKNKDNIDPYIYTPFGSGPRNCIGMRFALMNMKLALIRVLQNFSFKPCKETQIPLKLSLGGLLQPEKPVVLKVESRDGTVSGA

Example cases with answers are listed next.
CC(C)(C)OC(=O)N[C@@H]1CCN(C(=O)OC2C3CC4CC(C3)CC2C4)C1 (stereo partly drawn) = > 30 µM
CC(C)(C)OC(=O)N[C@@H]1CCN(C(=O)O[C@H]2C3CC4CC2C[C@](C(N)=O)(C4)C3)C1 = > 30 µM

Given the entry OC1C2CC3CC(C2)CC1C3 (stereo not drawn) , what IC50 was observed with Cytochrome P450 3A4 (Homo sapiens)?
> 30 µM

====

Readings of half-life for the listed compounds
Test: in vitro
Conditions: rat, liver microsomes

N#Cc1cccnc1N[C@@H]1CCN(C(=O)O[C@H]2C3CC4CC2C[C@](C(N)=O)(C4)C3)C1 = > 60 min
OC1C2CC3CC(C2)CC1C3 (stereo not given) [ADAMANTAN-2-OL] = 2 min
NC(=O)[C@]12CC3CC(C1)[C@@H](OC(=O)N1CC[C@@H](Nc4ccc(C(F)(F)F)cn4)C1)C(C3)C2 = 47 min
CC(C)(C)OC(=O)N[C@@H]1CCN(C(=O)O[C@H]2C3CC4CC2C[C@](C(N)=O)(C4)C3)C1 = 30 min

Value lookup for half-life; key = "NC(=O)[C@]12CC3CC(C1)[C@@H](OC(=O)N1CC[C@H](Nc4ccc(C(F)(F)F)cn4)C1)C(C3)C2"
> 60 min

====

Target: 11-beta-hydroxysteroid dehydrogenase 1 (Homo sapiens)
Assay: Inhibition of 11betaHSD1 in human platelet assessed as [3H]-cortisone to [3H]-cortisol by microscintillation plate reader
pIC50: −log10 of the molar value.
measuredAttribute: pIC50

Example cases with answers are listed next.
NC(=O)[C@]12CC3CC(C1)[C@@H](OC(=O)N1CC[C@@H](Nc4nnc(C(F)(F)F)s4)C1)C(C3)C2 = < 7.00
CC(C)(C)OC(=O)N[C@@H]1CCN(C(=O)O[C@H]2C3CC4CC2C[C@](C(C)(C)O)(C4)C3)C1 = < 7.00

Value lookup for pIC50; key = "Cc1cc(N[C@@H]2CCN(C(=O)O[C@H]3C4CC5CC3C[C@](C(N)=O)(C5)C4)C2)nc(C)n1"
< 7.00
